Ref: ChEMBL document CHEMBL3745713

Tested on: A549
Test summary: Cytotoxicity against human A549 cells assessed as cell growth at 5 uM measured at 72 hrs by CyQuant proliferation assay relative to control
Assay type: functional
Experimental setup: A549, 72 h, read-out: Activity
Provide the reported growth at 5 µM of each item.
Give bare numbers, in %.

Guide cases for growth at 5 µM, answers given:
Compound | Reported result
COc1c(Br)cc(C/C(=N\O)C(=O)NCCCOc2c(Br)cc(CCN)cc2Br)c(O)c1Br | 96
COC1=C(Br)[C@@H](O)[C@]2(C=C1Br)CC(C(=O)NCCCOc1c(Br)cc(CCNC(=O)CCCCCCCCCCCC(C)C)cc1Br)=NO2 | 88
COc1c(Br)cc(C/C(=N\O)C(=O)NCCc2cc(Br)c(OCCCN)c(Br)c2)cc1Br | 92

input: Query growth at 5 µM on A549 for CCCCCCC(C)CCCCCCCC(=O)NCCc1cc(Br)c(OCCCNC(=O)C2=NO[C@@]3(C=C(Br)C(OC)=C(Br)[C@H]3O)C2)c(Br)c1 (some centres undefined)
output: 89
